- Test system: mice bearing PSMA-expressing LNCAP cancer xenografts
- test-details: Biodistribution of 68Ga-labeled compounds
- Format: in vivo
- run-parameters: 3 h post-injection
assay-metric: Tail uptake

-- ask Query: Tail uptake; subject: O=C([O-])CN1CCN(CC(=O)[O-])CCN(CC(=O)NCCCC[C@H](NC(=O)CNC(=O)CCc2ccccc2)C(=O)NC[C@H]2CC[C@H](C(=O)N[C@@H](Cc3ccc4ccccc4c3)C(=O)NCCCC[C@H](NC(=O)N[C@@H](CCC(=O)O)C(=O)O)C(=O)O)CC2)CCN(CC(=O)[O-])CC1.[68Ga+3] [^68Ga-HTK03082]
-- reply 0.24 ± 0.14 % ID/g

-- ask One more compound: O=C([O-])CN1CCN(CC(=O)[O-])CCN(CC(=O)NCCCC[C@H](NC(=O)CNC(=O)CCCc2ccc(Cl)cc2)C(=O)NC[C@H]2CC[C@H](C(=O)N[C@@H](Cc3ccc4ccccc4c3)C(=O)NCCCC[C@H](NC(=O)N[C@@H](CCC(=O)O)C(=O)O)C(=O)O)CC2)CCN(CC(=O)[O-])CC1.[68Ga+3] [^68Ga-HTK03055]
-- reply 3.52 ± 0.65 % ID/g

-- ask # repeat for O=C([O-])CN1CCN(CC(=O)[O-])CCN(CC(=O)NCC2CCC(C(=O)NC(Cc3c4ccccc4cc4ccccc34)C(=O)NCCCCC(NC(=O)NC(CCC(=O)O)C(=O)O)C(=O)O)CC2)CCN(CC(=O)[O-])CC1.[68Ga+3] (stereo not drawn) [^68Ga-HTK03041]
-- reply 0.86 ± 0.73 % ID/g

* * *

- System: mice bearing PSMA-expressing LNCAP cancer xenografts
- test-details: Biodistribution of 68Ga-labeled compounds
- Type: in vivo
- run-parameters: 3 h post-injection
- Protocol: Imaging and biodistribution experiments were performed using NODSCID 1L2RyKO male mice. Mice were anesthetized by inhalation with 2% isoflurane in oxygen, and implanted subcutaneously with 1×10^7 LNCaP cells behind left shoulder. […] For biodistribution studies, the mice were injected with the radiotracer as described above. […] The collected organs/tissues were weighed and counted using an automatic gamma counter. […]
assay-metric: Stomach uptake (% ID/g)
// units = % ID/g; emit number, no label

-- ask # get_value(readout='Stomach uptake', item= O=C([O-])CN1CCN(CC(=O)[O-])CCN(CC(=O)NCCCC[C@H](NC(=O)CNC(=O)CCCc2ccc([N+](=O)[O-])cc2)C(=O)NC[C@H]2CC[C@H](C(=O)N[C@@H](Cc3ccc4ccccc4c3)C(=O)NCCCC[C@H](NC(=O)N[C@@H](CCC(=O)O)C(=O)O)C(=O)O)CC2)CCN(CC(=O)[O-])CC1.[68Ga+3] [^68Ga-HTK03089] )
-- reply 0.19

-- ask Would you kindly repeat that for O=C([O-])CN1CCN(CC(=O)[O-])CCN(CC(=O)NCCCC[C@H](NC(=O)CNC(=O)CCCc2ccc(Br)cc2)C(=O)NC[C@H]2CC[C@H](C(=O)N[C@@H](Cc3ccc4ccccc4c3)C(=O)NCCCC[C@H](NC(=O)N[C@@H](CCC(=O)O)C(=O)O)C(=O)O)CC2)CCN(CC(=O)[O-])CC1.[68Ga+3] [^68Ga-HTK03058] ?
-- reply 0.79

-- ask Try this molecule next: Nc1ccc(CCCC(=O)NCC(=O)N[C@@H](CCCCNC(=O)CN2CCN(CC(=O)[O-])CCN(CC(=O)[O-])CCN(CC(=O)[O-])CC2)C(=O)NC[C@H]2CC[C@H](C(=O)N[C@@H](Cc3ccc4ccccc4c3)C(=O)NCCCC[C@H](NC(=O)N[C@@H](CCC(=O)O)C(=O)O)C(=O)O)CC2)cc1.[68Ga+3] [^68Ga-HTK03087]
-- reply 0.07

* * *

- Test system: mice bearing PSMA-expressing LNCAP cancer xenografts
- test-details: Biodistribution of 68Ga-labeled compounds
- Format: in vivo
- run-parameters: 1 h post-injection
- Protocol: Imaging and biodistribution experiments were performed using NODSCID 1L2RyKO male mice. Mice were anesthetized by inhalation with 2% isoflurane in oxygen, and implanted subcutaneously with 1×10^7 LNCaP cells behind left shoulder. […] For biodistribution studies, the mice were injected with the radiotracer as described above. […] The collected organs/tissues were weighed and counted using an automatic gamma counter. […]
assay-metric: Lungs uptake
Note: a bare number is incomplete; add the unit.

-- ask Looking for the measured Lungs uptake of O=C([O-])CN1CCN(CC(=O)[O-])CCN(CC(=O)NCCCC[C@H](NC(=O)CNC(=O)CCCc2ccccc2)C(=O)NC[C@H]2CC[C@H](C(=O)N[C@@H](Cc3ccc4ccccc4c3)C(=O)NCCCC[C@H](NC(=O)N[C@@H](CCC(=O)O)C(=O)O)C(=O)O)CC2)CCN(CC(=O)[O-])CC1.[68Ga+3] [^68Ga-HTK03056] , can you help?
-- reply 3.28 ± 0.85 % ID/g

-- ask Could you do the same for CCCCCCC(NC(=O)C1CCC(CNC(=O)CN2CCN(CC(=O)[O-])CCN(CC(=O)[O-])CCN(CC(=O)[O-])CC2)CC1)C(=O)NCCCCC(NC(=O)NC(CCC(=O)O)C(=O)O)C(=O)O.[68Ga+3] (stereo not shown) [^68Ga-HTK03026] , please?
-- reply 0.82 ± 0.26 % ID/g

-- ask Also O=C([O-])CN1CCN(CC(=O)[O-])CCN(CC(=O)NCC2CCC(C(=O)NC(Cc3ccc4ccc5cccc6ccc3c4c56)C(=O)NCCCCC(NC(=O)NC(CCC(=O)O)C(=O)O)C(=O)O)CC2)CCN(CC(=O)[O-])CC1.[68Ga+3] (stereo not shown) [^68Ga-HTK03029] , if possible.
-- reply 3.59 ± 0.69 % ID/g

-- ask Proceed to Cc1ccc(CCCC(=O)NCC(=O)N[C@@H](CCCCNC(=O)CN2CCN(CC(=O)[O-])CCN(CC(=O)[O-])CCN(CC(=O)[O-])CC2)C(=O)NC[C@H]2CC[C@H](C(=O)N[C@@H](Cc3ccc4ccccc4c3)C(=O)NCCCC[C@H](NC(=O)N[C@@H](CCC(=O)O)C(=O)O)C(=O)O)CC2)cc1.[68Ga+3] [^68Ga-HTK03090]
-- reply 7.68 ± 1.33 % ID/g

-- ask Now give it for O=C([O-])CN1CCN(CC(=O)[O-])CCN(CC(=O)NCCCC[C@H](NC(=O)CNC(=O)CCCc2ccc([N+](=O)[O-])cc2)C(=O)NC[C@H]2CC[C@H](C(=O)N[C@@H](Cc3ccc4ccccc4c3)C(=O)NCCCC[C@H](NC(=O)N[C@@H](CCC(=O)O)C(=O)O)C(=O)O)CC2)CCN(CC(=O)[O-])CC1.[68Ga+3] [^68Ga-HTK03089] too.
-- reply 4.68 ± 0.35 % ID/g

-- ask Subsequent entry: Nc1ccc(CCCC(=O)NCC(=O)N[C@@H](CCCCNC(=O)CN2CCN(CC(=O)[O-])CCN(CC(=O)[O-])CCN(CC(=O)[O-])CC2)C(=O)NC[C@H]2CC[C@H](C(=O)N[C@@H](Cc3ccc4ccccc4c3)C(=O)NCCCC[C@H](NC(=O)N[C@@H](CCC(=O)O)C(=O)O)C(=O)O)CC2)cc1.[68Ga+3] [^68Ga-HTK03087]
-- reply 1.75 ± 0.09 % ID/g

-- ask Can you check O=C([O-])CN1CCN(CC(=O)[O-])CCN(CC(=O)NCC2CCC(C(=O)NC(Cc3ccc4cc5ccccc5cc4c3)C(=O)NCCCCC(NC(=O)NC(CCC(=O)O)C(=O)O)C(=O)O)CC2)CCN(CC(=O)[O-])CC1.[68Ga+3] (stereo not shown) [^68Ga-HTK03027] next?
-- reply 1.66 ± 0.67 % ID/g

* * *

- System: mice bearing PSMA-expressing LNCAP cancer xenografts
- test-details: Biodistribution of 68Ga-labeled compounds
- Format: in vivo
- run-parameters: 3 h post-injection
assay-metric: Lacrimal uptake (% ID/g)
// units = % ID/g; emit number, no label

-- ask Dear colleague, I am looking for the recorded Lacrimal uptake of the following compound: O=C([O-])CN1CCN(CC(=O)[O-])CCN(CC(=O)NCCCC[C@H](NC(=O)CNC(=O)CCCc2ccccc2)C(=O)NC[C@H]2CC[C@H](C(=O)N[C@@H](Cc3ccc4ccccc4c3)C(=O)NCCCC[C@H](NC(=O)N[C@@H](CCC(=O)O)C(=O)O)C(=O)O)CC2)CCN(CC(=O)[O-])CC1.[68Ga+3] [^68Ga-HTK03056]
-- reply 3.01

-- ask Please do the same for O=C([O-])CN1CCN(CC(=O)[O-])CCN(CC(=O)NCC2CCC(C(=O)NC(Cc3c4ccccc4cc4ccccc34)C(=O)NCCCCC(NC(=O)NC(CCC(=O)O)C(=O)O)C(=O)O)CC2)CCN(CC(=O)[O-])CC1.[68Ga+3] (centres unmarked) [^68Ga-HTK03041] as well.
-- reply 2.82

-- ask Subsequent entry: O=C([O-])CN1CCN(CC(=O)[O-])CCN(CC(=O)NCCCC[C@H](NC(=O)CNC(=O)CCCc2ccc(F)cc2)C(=O)NC[C@H]2CC[C@H](C(=O)N[C@@H](Cc3ccc4ccccc4c3)C(=O)NCCCC[C@H](NC(=O)N[C@@H](CCC(=O)O)C(=O)O)C(=O)O)CC2)CCN(CC(=O)[O-])CC1.[68Ga+3] [^68Ga-HTK03085]
-- reply 0.04

-- ask Also COc1ccc(CCCC(=O)NCC(=O)N[C@@H](CCCCNC(=O)CN2CCN(CC(=O)[O-])CCN(CC(=O)[O-])CCN(CC(=O)[O-])CC2)C(=O)NC[C@H]2CC[C@H](C(=O)N[C@@H](Cc3ccc4ccccc4c3)C(=O)NCCCC[C@H](NC(=O)N[C@@H](CCC(=O)O)C(=O)O)C(=O)O)CC2)cc1.[68Ga+3] [^68Ga-HTK03086] , if possible.
-- reply 0.07

-- ask What about Cc1ccc(CCCC(=O)NCC(=O)N[C@@H](CCCCNC(=O)CN2CCN(CC(=O)[O-])CCN(CC(=O)[O-])CCN(CC(=O)[O-])CC2)C(=O)NC[C@H]2CC[C@H](C(=O)N[C@@H](Cc3ccc4ccccc4c3)C(=O)NCCCC[C@H](NC(=O)N[C@@H](CCC(=O)O)C(=O)O)C(=O)O)CC2)cc1.[68Ga+3] [^68Ga-HTK03090] ?
-- reply 0.10
